meta.source: PubChem BioAssay (EPA / NIEHS)

Assay Notes: ATG_ERE_CIS: Attagene CIS-FACTORIAL HepG2 Assay for Estrogen Response Element (ERE) (AID 2282940)
Test Context: HepG2 ERE cis-reporter, Attagene RNA transcript; actives raise or lower the signal
Protocol: ATG_CIS is a cell-based, multiplexed-readout assay that uses HepG2, a human liver cell line, with measurements taken at 24 hours after chemical dosing in a 24-well plate.ATG_ERE_CIS is one of 52 assay component(s) measured or calculated from the ATG_CIS assay. […] This assay endpoint, ATG_ERE_CIS, was analyzed with bidirectional fitting relative to DMSO as the negative control and baseline of activity. […]
The source made the active and inactive calls. The calls were made as follows: active = hit-call score of the fitted dose curve at least 0.9, where 1 is the maximum; inactive = score below 0.9.
Respond only with the outcome that fits, drawn from active, inactive

Before answering, review these 5 worked examples.
Molecule	Qualitative Label
CC(=O)CC(=O)N(C)C	inactive
C=C(C)C(=O)OCCC(C)OC(=O)C(=C)C (centres undefined)	inactive
CCOCC(C)O (centres undefined)	inactive
NC(=O)c1c(Cl)cccc1Cl	inactive
CCCCCCCCOC(=O)c1ccc(O)cc1	active

Task item: Which outcome was entered for the molecule CCCCCC#CC(=O)OC in this test?
Reply: inactive

Task item: Test call, this molecule: CC(=O)c1ccc(O)cc1
Reply: active

Task item: # outcome recorded in this test, key = CCCCC(CC)COCCO (centres undefined)
Reply: inactive

----------
Read-out: Monokine induced gamma interferon (MIG), CXCL9 (gene 4283)
Assay Notes: BSK_SAg_MIG: BioMAP Diversity Plus: SAg Assay for Monokine induced gamma interferon (MIG) Biomarker Activity (AID 2283092)
Test Context: primary human HUVEC with PBMC; actives raise or lower the signal
Activity calls are given as the source filed them. How the source made its calls: active means hit-call score of the fitted dose curve at least 0.9, where 1 is the maximum; inactive means score below 0.9.
Respond only with the outcome that fits, drawn from active, inactive

Solved cases (4 shown):
O=S1(=O)CC(Cl)(Cl)C(Cl)(Cl)C1 active
O=C1OC2(c3ccc(O)cc3Oc3cc(O)ccc32)c2ccccc21 inactive
O=C(c1ccc(OCCN2CCCCC2)cc1)c1c(-c2ccc(O)cc2)sc2cc(O)ccc12 active
C=C(F)C(=O)OC(C(F)(F)F)C(F)(F)F inactive

Task item: I would be grateful if you could indicate the recorded call for C=CC(=O)OCC(CO)(COC(=O)C=C)COC(=O)C=C .
Reply: active

Task item: Tell me the recorded outcome of this test for CC(C)CCCC(C)(C)O .
Reply: inactive

----------
Assay Notes: ATG_BRE_CIS: Attagene CIS-FACTORIAL HepG2 Assay for human Bone Morphogenetic Protein (BMP) Response Element (BRE) (AID 2282933)
Test Context: HepG2 BMP response element reporter, Attagene transcription factor profiling; actives raise or lower the signal
Activity calls are given as the source filed them. How the source made its calls: active means hit-call score of the fitted dose curve at least 0.9, where 1 is the maximum; inactive means score below 0.9.
Log the outcome using a class from yes (1) = active, no (0) = inactive

The following molecules have reported results that may help.
Molecule	Qualitative Label
O=C(O)CS	no (0)
CC(=O)CCc1ccc(O)cc1	no (0)
CCC(C)COC(=O)CC(C)C (stereo not given)	no (0)
C1=COCCC1	no (0)
CCCCOC(=O)C(C)OC(=O)CCC (stereo not given)	no (0)
CCCCOCCOC(=O)c1ccccc1C(=O)OCCOCCCC	no (0)
CN1CCc2cccc3c2[C@H]1Cc1ccc(O)c(O)c1-3	no (0)
CCCCCCCCCOS(=O)(=O)O	no (0)

Task item: Record request — test call for CNC(=C[N+](=O)[O-])NCCSCc1ccc(CN(C)C)o1
Reply: no (0)

Task item: # outcome recorded in this test, key = O=Cc1ccccc1O
Reply: no (0)

Task item: Could you kindly confirm the outcome this assay logged for Cc1cc(O)c2c(c1)C(=O)c1cc(O)cc(O)c1C2=O ?
Reply: yes (1)

Task item: Which outcome was entered for the molecule C=C(C)C(=O)OCCC[Si](OC)(OC)OC in this test?
Reply: no (0)

Task item: Hello, I am checking results. What call was entered for CCCC1CCC(=O)CC1 ?
Reply: no (0)

Task item: Kindly provide the recorded test outcome for the following molecule: COc1ccc(OC)cc1
Reply: no (0)

Task item: Write down the call the test reported for this molecule. Item: CC(C)(O)C(=O)c1ccc(OCCO)cc1
Reply: no (0)
